Below, each entry is listed with its recorded EC50.
# tgt: T1, human IL-36R overexpressed on 293T-hIL36R-NFκB cells (human, UniProt Q9HB29 20-575)
# T1 construct: Entry includes the signal peptide; also called IL1RL2; IL-1Rrp2
# T1 sequence: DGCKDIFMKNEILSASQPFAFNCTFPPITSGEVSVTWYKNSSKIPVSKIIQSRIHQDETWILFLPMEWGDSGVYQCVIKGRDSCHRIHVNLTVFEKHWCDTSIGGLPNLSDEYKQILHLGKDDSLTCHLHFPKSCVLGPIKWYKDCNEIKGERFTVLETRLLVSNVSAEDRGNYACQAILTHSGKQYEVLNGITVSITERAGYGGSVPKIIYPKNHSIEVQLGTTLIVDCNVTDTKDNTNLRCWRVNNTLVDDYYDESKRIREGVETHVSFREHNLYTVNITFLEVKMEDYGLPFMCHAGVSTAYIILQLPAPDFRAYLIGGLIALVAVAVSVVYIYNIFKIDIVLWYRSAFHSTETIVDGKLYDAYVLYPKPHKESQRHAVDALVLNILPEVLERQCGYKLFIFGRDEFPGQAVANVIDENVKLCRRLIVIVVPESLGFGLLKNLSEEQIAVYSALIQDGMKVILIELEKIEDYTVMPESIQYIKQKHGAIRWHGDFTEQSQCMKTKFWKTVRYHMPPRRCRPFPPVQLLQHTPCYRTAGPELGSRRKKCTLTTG
# experimentNotes: FACS on 293T-hIL36R-NFκB cells, ratio of MFI to background MFI

{"columns": ["binder", "valueKind", "result"],
 "data": [
  ["hz84C4-2.1 (antibody, human IgG4 S228P, kappa, V domains shown, Humanized, human IgG4 / kappa) VH: QVQLVQSGAEVKKPGASVKVSCKASGYFFTSYWMNWVRQAPGQGLEWMGMIHPYDSETRYAQKFQGRVTMTVDKSTSTVYMELSSLRSEDTAVYYCASSTTAFAYWGQGTLVTVSS VL: DIQMTQSPSSLSASVGDRVTITCRASQDIGNALNWLQQKPGKAPKRLIYATSSLDPGVPSRFSGSRSGTDYTLTISSLQPEDFATYYCLQYASSPYTFGQGTKVEIKR", "EC50", "~5.22 nM"]
]}

Ask | Look up EC50: hz84C4-2.2 (antibody, human IgG4 S228P, kappa, V domains shown, Humanized, human IgG4 / kappa) VH: QVQLVQSGAEVKKPGASVKVSCKASGYFFTSYWMNWVRQAPGQGLEWMGYIHPYDSETRYAQKFQGRVTMTVDKSTSTVYMELSSLRSEDTAVYYCASSTTAFAYWGQGTLVTVSS VL: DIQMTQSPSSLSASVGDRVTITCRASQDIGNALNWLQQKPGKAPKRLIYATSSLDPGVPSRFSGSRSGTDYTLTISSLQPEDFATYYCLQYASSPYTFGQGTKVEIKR
Reply | ~5.23 nM

Ask | Look up EC50: hz84C4-2.5 (antibody, human IgG4 S228P, kappa, V domains shown, Humanized, human IgG4 / kappa) VH: QVQLVQSGAEVKKPGASVKVSCKVSGYFFTSYWMNWVNQAPGQGLEWMGMIHPYDSETRLAQKFKGRVTMTVDKSTSTVYMELSSLRSEDTAVYYCASSTTAFAYWGQGTLVTVSS VL: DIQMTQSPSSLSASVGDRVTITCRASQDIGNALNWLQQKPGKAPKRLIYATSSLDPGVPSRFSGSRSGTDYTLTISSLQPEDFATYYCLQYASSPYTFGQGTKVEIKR
Reply | ~5.04 nM
